Target Or Test System: nm-HO (Neisseria meningitidis, UniProt Q9AH50)
Sequence (Q9AH50 1-209): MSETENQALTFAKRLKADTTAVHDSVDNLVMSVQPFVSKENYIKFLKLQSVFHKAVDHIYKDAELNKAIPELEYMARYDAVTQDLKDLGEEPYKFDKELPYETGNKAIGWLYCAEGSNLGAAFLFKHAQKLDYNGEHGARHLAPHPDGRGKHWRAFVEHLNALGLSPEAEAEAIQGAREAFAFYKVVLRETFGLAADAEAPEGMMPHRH
Assay type: cell-based
Protocol Conditions: Table 4
Value Type: E. coli assay

CN(C)c1ccc(/C=N/NC(=N)N)cc1
White pellet
O=C(c1ccco1)C12CN3CN(CN(C3)C1)C2
Green Pellet
NC(=O)c1ccc(NC(=O)/C=C\C(=O)O)cc1Cl
Green Pellet
O=C(O)/C=C\C(=O)Nc1ccc(Nc2ccccc2)cc1
White pellet
Cl.N=C(N/N=C\c1cccnc1)N/N=C\c1cccnc1
White pellet

Next item in the queue.
q: Report E. coli assay for "O=C(Cc1ccc(Cl)cc1)N/N=C/c1c[nH]c2ccccc12" please.
a: White pellet

====

Target Or Test System: nm-HO (Neisseria meningitidis)
Test Method Notes: biochemical
Assay type: binding
Protocol Conditions: Table 4; target not named, values match nm-HO of Table 3A
Assign pKd to each entry below.
pKd (log units): -log10 of the concentration in mol/L.

q: # get_value(readout= pKd, system= nm-HO (Neisseria meningitidis)) for "O=C(Cc1ccc(Cl)cc1)N/N=C/c1c[nH]c2ccccc12"
a: 4.85

q: Reported pKd for nm-HO (Neisseria meningitidis), given "Cl.N=C(N/N=C\c1cccnc1)N/N=C\c1cccnc1" ?
a: 4.91

====

Target Or Test System: pa-HO (Pseudomonas aeruginosa)
Sequence (O69002 1-198): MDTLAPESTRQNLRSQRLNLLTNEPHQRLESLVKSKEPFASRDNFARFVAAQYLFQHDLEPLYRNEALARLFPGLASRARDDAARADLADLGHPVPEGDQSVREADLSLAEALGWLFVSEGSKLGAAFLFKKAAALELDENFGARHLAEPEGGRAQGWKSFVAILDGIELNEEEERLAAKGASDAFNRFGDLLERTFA
Test Method Notes: biochemical
Type: binding
Protocol Conditions: read-out: Fluorescence pa-HO Kd
Value Type: Kd (µM)
A number alone suffices; assume µM.

q: Look at this compound and give its reported Kd. "Cl.N=C(N/N=C\c1cccnc1)N/N=C\c1cccnc1"
a: 15.9

====

Record form. Attribute: MIC50. Fill in for each entry.
Tested on: P. aeruginosa
Test Method Notes: MIC50 for P. aeruginosa
Format: cell-based, Pseudomonas aeruginosa
Protocol Conditions: Pseudomonas aeruginosa; Table 3A; read-out: MIC 50

q: I am curious: what MIC50 value has been reported for NCc1ccc2c3c(cccc13)C(=O)N2 [Compound 87] ?
a: > 125 µg/mL

q: Consider the molecule O=C(O)/C=C\C(=O)Nc1ccc(Nc2ccccc2)cc1 [Compound 75] and give its measured MIC50.
a: > 1000 µg/mL

q: Look at this molecule and give its reported MIC50. NCC(O)(c1ccc(Cl)cc1)c1ccc(Cl)cc1 [Compound 131]
a: > 250 µg/mL

q: Given NC(=O)c1ccc(NC(=O)/C=C\C(=O)O)cc1Cl [Compound 8] , state its recorded MIC50.
a: > 750 µg/mL

q: Consider the molecule CN(C)c1ccc(/C=N/NC(=N)N)cc1 [Compound 1] and give its measured MIC50.
a: > 160 µg/mL

====

Target Or Test System: pa-HO (Pseudomonas aeruginosa)
Assay type: binding
Protocol Conditions: Table 2; paHO
Value Type: NMR sat. transfer

O=C(O)CCC(=O)Nc1ccc(Oc2ccccc2)cc1 [Compound 48]
do not bind paHO
Cc1cc(C(=O)O)nn1-c1ccccc1 [Compound 115]
yes, bind paHO
Cn1c(=O)c(CC(=O)C(=O)O)nc2ccccc21 [Compound 152]
yes, bind paHO
CCN(CC)c1ccc(/C=N/n2nnnc2N)c(O)c1 [Compound 149]
do not bind paHO

====

Test system: P. aeruginosa
Test Method Notes: MIC50 for P. aeruginosa
Assay type: cell-based, Pseudomonas aeruginosa
Protocol Conditions: Pseudomonas aeruginosa; Table 2; read-out: minimum inhibition conc
Value Type: MIC

q: So what's the measured MIC for this one? O=C(O)/C=C\C(=O)Nc1ccc(Nc2ccccc2)cc1 [Compound 75]
a: > 1000 µg/mL

q: Can you share its MIC? I mean this molecule: NCC(O)(c1ccc(Cl)cc1)c1ccc(Cl)cc1 [Compound 131]
a: > 250 µg/mL

q: Query: MIC; subject: CN(C)c1ccc(/C=N/NC(=N)N)cc1 [Compound 1]
a: > 160 µg/mL

q: Quick one: MIC of COc1ccc(C(=O)CCC(=O)O)c(C)c1 [Compound 59] ?
a: > 1000 µg/mL

q: Request the reported MIC associated with NCC(=O)N(O)Cc1ccccc1 [Compound 127]
a: > 1000 µg/mL

q: Which MIC value is on record for CC(N)c1ccc2ccccc2c1 (centres unmarked) [Compound 103] ?
a: > 250 µg/mL

q: Which measured MIC value corresponds to NC(=O)c1ccc(NC(=O)/C=C\C(=O)O)cc1Cl [Compound 8] ?
a: > 750 µg/mL

q: Which value of MIC has been reported for NCc1ccc2c3c(cccc13)C(=O)N2 [Compound 87] in the records?
a: > 125 µg/mL
